For each record, write down the corresponding growth.
Tested on: KM12 colon
Assay: NCI-60 one-dose screen, 48 h (100 = growth as untreated, 0 = no growth, -100 = all killed)
Conditions: 10 µM unless noted
About 83,000 compounds went through this panel and 20% of them were active in at least one assay; those are over-represented in the sample as a whole.
Give bare numbers, in %.

| Compound | growth [%] |
| --- | --- |
| CC(C)(C)c1cc(/C=N\NC(=O)/C=C/C=C/c2ccc3c(c2)OCO3)c(O)c(C(C)(C)C)c1 | 75.1 |
| CSc1ccc(-c2ccccc(=O)c2O)cc1 | 23.1 |
| NC1=C(Cl)C(=O)c2ccc(S(N)(=O)=O)cc2C1=O | -72.1 |
| CCOC(=O)c1sc(Nc2ccc(Cl)cc2)nc1C | -1.62 |
| O=C1/C(=C/N2N=C(c3ccc4ccccc4c3)CC2c2ccccc2O)SC(=S)N1c1cccnc1 (configuration not stated) | 18.2 |
| O=C(O)c1ccc(N=CC(=O)c2ccc(-c3ccccc3)cc2)cc1 | 102 |
| COc1cccc(Nc2nc(SC)nc(-c3cccc([N+](=O)[O-])c3)c2C#N)c1 | 98.4 |
| CCCOc1cc2ccccc2cc1C(=O)Nc1nc(NC)c2c(ccc3nccc32)[nH]1 | -72.2 |

Please give growth, item by item, for the list that follows.
1. CCOC(=O)c1c(C)oc2ncnc(N3CCN(C(=S)Nc4ccccc4)CC3)c12
2. Cc1nn(-c2ccc(F)cc2)c2ncnc(Nc3ccc(NC(=O)Nc4ccc(Cl)c(C(F)(F)F)c4)cc3)c12
3. N#C/C(=C\c1ccc(-c2cc(C(F)(F)F)ccc2Cl)o1)c1nc(-c2ccco2)cs1
4. COc1ccc(CN2c3ccccc3Sc3ccccc32)c(C(F)(F)F)c1

96.4
14.7
99.9
20

###

Tested on: HCT-116 colon
Experiment: NCI-60 one-dose screen, 48 h (100 = growth as untreated, 0 = no growth, -100 = all killed)
Conditions: 10 µM unless noted
The panel holds about 83,000 compounds, 20% with a hit somewhere; the sample as a whole holds those more often.
Would you mind labelling by growth? At or over 90% is Satisfied, under is Not satisfied.

Below are worked cases with known answers.
| Molecule | Cat |
| --- | --- |
| CC(C)CC1C(=O)N2CCC[C@H]2C2(O)O[C@](NC(=O)C3C=C4c5cccc6[nH]c(Br)c(c56)C[C@H]4N(C)C3)(C(C)C)C(=O)N12 (stereo not given in full) | Not satisfied |
| Cn1cc(C(=O)c2nc(-c3c[nH]c4ccc(Br)cc34)no2)c2cc(F)ccc21 | Satisfied |

For this molecule, is measured growth 90% or higher? Cc1ccc(C2Oc3ccccc3C3CC(c4cccs4)=NN32)cc1 (stereo not given)
Satisfied

Continue with CSc1nc(NCCN2CCOCC2)c(C#N)c(-c2cccc([N+](=O)[O-])c2)n1
Satisfied

Continue with Clc1ccc2c(NCCNc3nc(N4CCOCC4)nc4ccccc34)ccnc2c1
Not satisfied

Continue with Clc1ccc2nc3nc4ccc[nH]c4cc3c2c1
Satisfied

Continue with COC(=O)c1cccc(NC(=O)c2ccc(-c3cccc(N)c3)o2)c1
Satisfied

Continue with COc1cc(-c2nn(-c3ccc(Br)cc3)cc2C(=O)O)ccc1O
Satisfied

Continue with COc1cccc(-c2nc3sccn3c2-c2ccnc(NCCNS(=O)(=O)c3ccccc3)c2)c1
Not satisfied
